Assay: self-splicing fitness, log relative to wild type (ln ratio); higher = more splicing; Tetrahymena group I intron in knt gene, E. coli kanamycin selection, DiMSum; sequences stand for … in CUCUCU…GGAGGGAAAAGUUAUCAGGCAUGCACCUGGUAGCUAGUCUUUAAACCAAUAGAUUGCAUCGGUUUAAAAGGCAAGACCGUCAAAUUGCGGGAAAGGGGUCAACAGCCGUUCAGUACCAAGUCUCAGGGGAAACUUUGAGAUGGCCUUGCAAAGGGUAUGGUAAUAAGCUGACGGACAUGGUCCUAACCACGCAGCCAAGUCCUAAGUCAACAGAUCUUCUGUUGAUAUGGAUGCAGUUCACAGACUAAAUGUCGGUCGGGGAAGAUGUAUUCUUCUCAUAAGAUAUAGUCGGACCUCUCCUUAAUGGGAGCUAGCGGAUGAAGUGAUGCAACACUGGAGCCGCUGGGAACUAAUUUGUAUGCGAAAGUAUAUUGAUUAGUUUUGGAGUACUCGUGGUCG;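 note: selection with 25 µg/mL kanamycin versus none on LB agar overnight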
Settings: 37 °C
We'd kindly ask you to apply these self-splicing fitness (ln) classes: low: < -2; moderate: ≥ -2 and < -0.8; high: ≥ -0.8

* ACUAAGCAAUAUUACGGAAG | moderate
* GGUCAGCAAUAUUACGCCUA | high
* ACAGAGCAAUAUUACGGAUU | moderate
* UUGGAGCAAUAUUACGGGCU | low
* UAUAAGCAAUAUUACGACUU | high
* UGGCAGCAAUAUUACGGCAG | high
* ACGUAGCAAUAUUACGAAAC | low
* CGUUAGCAAUAUUACGCCGG | high
* AAUAAGCAAUAUUACGUUAU | moderate
* ACCUAGCAAUAUUACGCUAG | low
* CUUCAGCAAUAUUACGUGUC | low
* CUAUAGCAAUAUUACGGUUU | low
* GUUUAGCAAUAUUACGACGC | high
* UCAUAGCAAUAUUACGAGCA | moderate
* UCCCAGCAAUAUUACGGCGC | high
* AAUUAGCAAUAUUACGCUUU | moderate
* CGAUAGCAAUAUUACGAAUG | high
* UCCGAGCAAUAUUACGAUAC | low
* CCCCAGCAAUAUUACGAUGU | low
* GCCCAGCAAUAUUACGACCU | high
* UUCGAGCAAUAUUACGGCAG | moderate
* UUUGAGCAAUAUUACGGUCC | moderate
* UUCAAGCAAUAUUACGAUGU | moderate
* GGACAGCAAUAUUACGUAUU | high
* UUGGAGCAAUAUUACGUAGA | moderate
